Quick reference: melting point of the listed items.

Study these solved cases before continuing.
{"Molecule": "NC(=O)[C@H]1CN(c2cc(F)c(N3CC[S+]([O-])CC3)c(F)c2)C(=O)O1", "Assay endpoint": "melting point", "Measured": "273 to 276 °C (dec.)"}
{"Molecule": "CCCNC(=O)[C@H]1CN(c2ccc(N3CCOCC3)c(F)c2)C(=O)O1", "Assay endpoint": "melting point", "Measured": "165 to 167 °C"}
{"Molecule": "CONC(=O)[C@H]1CN(c2ccc(N3CCOCC3)c(F)c2)C(=O)O1", "Assay endpoint": "melting point", "Measured": "206 to 208 °C (dec.)"}

Lookup: Entry under review: NC(=O)[C@H]1CN(c2ccc([C@H]3CC[S@@+]([O-])CC3)c(F)c2)C(=O)O1 (racemic) . Reported melting point?
Found: 279 to 281 °C (dec.)

Lookup: Entry NC(=O)[C@H]1CN(c2ccc(N3CCS(=O)(=O)CC3)c(F)c2)C(=O)O1 please
Found: 245 to 247 °C (dec.)

Lookup: Entry NC(=O)[C@H]1CN(c2ccc(C3=CC[S+]([O-])CC3)c(F)c2)C(=O)O1 (stereo partly drawn) please
Found: 182 to 184 °C (dec.)

Lookup: Entry NC(=O)[C@H]1CN(c2ccc(N3CCN(C(=O)CO)CC3)c(F)c2)C(=O)O1 please
Found: 232 to 235 °C (dec.)

Lookup: Entry NC(=O)[C@H]1CN(c2ccc([C@H]3CC[S@+]([O-])CC3)c(F)c2)C(=O)O1 please
Found: 201 to 203 °C

Lookup: Entry C=CCNC(=O)[C@H]1CN(c2ccc(N3CCOCC3)c(F)c2)C(=O)O1 please
Found: 167 to 169 °C

Lookup: Entry NC(=O)[C@H]1CN(c2ccc(-c3cccnc3)c(F)c2)C(=O)O1 please
Found: 240 to 242 °C (dec.)

Lookup: Entry NC(=O)[C@H]1CN(c2ccc(-c3ccncc3)c(F)c2)C(=O)O1 please
Found: 256 to 259 °C (dec.)

Lookup: Entry NC(=O)[C@H]1CN(c2ccc([C@H]3CC[S@+]([O-])CC3)cc2)C(=O)O1 (racemic) please
Found: 174 to 175 °C

====

Quick reference: melting point of the listed items.

Study these solved cases before continuing.
{"Compound": "NC(=O)[C@H]1CN(c2ccc(C3CCOCC3)c(F)c2)C(=O)O1 [Example 444]", "Measured": "153 to 156 °C"}
{"Compound": "NC(=O)[C@H]1CN(c2ccc(N3CCS(=O)(=O)CC3)cc2)C(=O)O1 [Example 452]", "Measured": "226 to 228 °C"}

Lookup: Entry under review: O=C(NO)[C@H]1CN(c2ccc(N3CCOCC3)c(F)c2)C(=O)O1 [Example 440] . Reported melting point?
Found: 141 to 143 °C

Lookup: Entry NC(=O)[C@H]1CN(c2ccc([C@H]3CC[S@@+]([O-])CC3)cc2)C(=O)O1 [Example 459] please
Found: 269 to 273 °C (dec.)

Lookup: Entry CNC(=O)[C@H]1CN(c2ccc(N3CCOCC3)c(F)c2)C(=O)O1 [Example 436] please
Found: 182 to 183 °C (dec.)

Lookup: Entry NC(=O)[C@H]1CN(c2cc(F)c(N3CCS(=O)(=O)CC3)c(F)c2)C(=O)O1 [Example 449] please
Found: 245 to 248 °C (dec.)

Lookup: Entry NC(=O)[C@H]1CN(c2ccc(C3=CCS(=O)(=O)CC3)c(F)c2)C(=O)O1 [Example 446] please
Found: 206 to 208 °C

Lookup: Entry NC(=O)[C@H]1CN(c2ccc(C3=CCOCC3)c(F)c2)C(=O)O1 [Example 443] please
Found: 164 to 169 °C
